Source listed as ChEMBL document CHEMBL2016536.

system: Aspergillus fumigatus; assay: Antifungal activity against Aspergillus fumigatus by microbroth dilution method; type: functional
Parameter: MIC80 (µg/mL)

Cc1cccc(Cn2cc(CC(O)(Cn3cncn3)c3ccc(F)cc3F)nn2)c1 (centres undefined) :: 4
COc1ccc(OC)c(Cn2cc(CC(O)(Cn3cncn3)c3ccc(F)cc3F)nn2)c1 (centres undefined) :: 2
C[C@@H]1[C@H](O)[C@@H](C)/C=C/C=C/C=C/C=C/C=C/C=C/C=C/[C@H](O[C@@H]2O[C@H](C)[C@@H](O)[C@H](N)[C@@H]2O)C[C@@H]2O[C@](O)(C[C@@H](O)C[C@@H](O)[C@H](O)CC[C@@H](O)C[C@@H](O)CC(=O)O[C@H]1C)C[C@H](O)[C@H]2C(=O)O :: 1
OC(Cc1cn(Cc2ccc(Cl)cc2)nn1)(Cn1cncn1)c1ccc(F)cc1F (centres undefined) :: 4
OC(Cc1cn(Cc2ccc(F)cc2)nn1)(Cn1cncn1)c1ccc(F)cc1F (centres undefined) :: 32
OC(Cc1cn(Cc2ccc(F)c(F)c2)nn1)(Cn1cncn1)c1ccc(F)cc1F (centres undefined) :: 16
OC(Cc1cn(Cc2ccccc2Cl)nn1)(Cn1cncn1)c1ccc(F)cc1F (centres undefined) :: 16
CC(=O)N1CCN(c2ccc(OCC3COC(Cn4ccnc4)(c4ccc(Cl)cc4Cl)O3)cc2)CC1 (centres undefined) :: 0.0156
COc1ccc(Cn2cc(CC(O)(Cn3cncn3)c3ccc(F)cc3F)nn2)cc1OC (centres undefined) :: 2

----------
test system: Aspergillus fumigatus; assay: Antifungal activity against Aspergillus fumigatus by microbroth dilution method; type: functional
Exam item: assign Condition met to entries whose MIC80 is below 4 µg/mL and Condition not met to entries at or above 4 µg/mL. Note that a value of exactly 4 µg/mL receives Condition not met.

OC(Cc1cn(Cc2cc(Cl)cc(Cl)c2)nn1)(Cn1cncn1)c1ccc(F)cc1F (stereo unspecified) :: Condition not met
OC(Cc1cn(Cc2ccc(Br)cc2)nn1)(Cn1cncn1)c1ccc(F)cc1F (stereo unspecified) :: Condition not met
OC(Cc1cn(Cc2ccc(Cl)c(Cl)c2)nn1)(Cn1cncn1)c1ccc(F)cc1F (stereo unspecified) :: Condition not met
OC(Cc1cn(Cc2ccccc2)nn1)(Cn1cncn1)c1ccc(F)cc1F (stereo unspecified) :: Condition not met
Cc1ccccc1Cn1cc(CC(O)(Cn2cncn2)c2ccc(F)cc2F)nn1 (stereo unspecified) :: Condition met
OC(Cc1cn(Cc2cccc(Br)c2)nn1)(Cn1cncn1)c1ccc(F)cc1F (stereo unspecified) :: Condition not met
CCC(C)n1ncn(-c2ccc(N3CCN(c4ccc(OCC5COC(Cn6cncn6)(c6ccc(Cl)cc6Cl)O5)cc4)CC3)cc2)c1=O (stereo unspecified) [ITRACONAZOLE] :: Condition met
C[C@@H](c1ncncc1F)[C@](O)(Cn1cncn1)c1ccc(F)cc1F [VORICONAZOLE] :: Condition met
O=[N+]([O-])c1ccc(Cn2cc(CC(O)(Cn3cncn3)c3ccc(F)cc3F)nn2)cc1 (stereo unspecified) :: Condition not met

----------
test system: Aspergillus fumigatus; assay: Antifungal activity against Aspergillus fumigatus by microbroth dilution method; type: functional
Parameter: log10(MIC80) (log10 of the value in µg/mL)

N#Cc1cccc(Cn2cc(CC(O)(Cn3cncn3)c3ccc(F)cc3F)nn2)c1 (stereo not given) :: 1.51
N#Cc1ccccc1Cn1cc(CC(O)(Cn2cncn2)c2ccc(F)cc2F)nn1 (stereo not given) :: 1.20
Cc1ccc(Cn2cc(CC(O)(Cn3cncn3)c3ccc(F)cc3F)nn2)cc1 (stereo not given) :: 0.30
N#Cc1ccc(Cn2cc(CC(O)(Cn3cncn3)c3ccc(F)cc3F)nn2)cc1 (stereo not given) :: 1.51
OC(Cn1cncn1)(Cn1cncn1)c1ccc(F)cc1F [FLUCONAZOLE] :: 1.81
O=[N+]([O-])c1ccccc1Cn1cc(CC(O)(Cn2cncn2)c2ccc(F)cc2F)nn1 (stereo not given) :: 1.51
O=[N+]([O-])c1cccc(Cn2cc(CC(O)(Cn3cncn3)c3ccc(F)cc3F)nn2)c1 (stereo not given) :: 1.51
OC(Cc1cn(Cc2cccc(F)c2)nn1)(Cn1cncn1)c1ccc(F)cc1F (stereo not given) :: 1.51
OC(Cc1cn(Cc2cccc(Cl)c2)nn1)(Cn1cncn1)c1ccc(F)cc1F (stereo not given) :: 0.90
OC(Cc1cn(Cc2ccccc2F)nn1)(Cn1cncn1)c1ccc(F)cc1F (stereo not given) :: 1.20
